Would you kindly list IC50 for each of these compounds?
# System: 772245-204-R-J1-PDC complex spheroid growth;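 note: compound exposure lasted seven days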
# assay-method-text: Anticancer human tumor 772245-204-R-J1-PDC patient-derived rhabdomyosarcoma cell line growth inhibition [Asc]
# stated-conditions: curve of first compound; second compound 0.01 µM

Exam item: # input compound: COc1c(OCCCN2CCOCC2)ccc2c3n(c(=NC(=O)c4cnc(N)nc4)nc12)CCN3 + CNC(C)C(=O)NC1CN(S(=O)(=O)c2cccc(S(=O)(=O)N3CCC4CCC(C(=O)NC(c5ccccc5)c5ccccc5)N4C(=O)C(NC(=O)C(C)NC)C3)c2)CCC2CCC(C(=O)NC(c3ccccc3)c3ccccc3)N2C1=O ; wanted: its IC50
Marked response: 193 nM

Exam item: One more compound: NC1CCC(NC2CC2c2ccccc2)CC1 (configuration not stated) + CNC(C)C(=O)NC1CN(S(=O)(=O)c2cccc(S(=O)(=O)N3CCC4CCC(C(=O)NC(c5ccccc5)c5ccccc5)N4C(=O)C(NC(=O)C(C)NC)C3)c2)CCC2CCC(C(=O)NC(c3ccccc3)c3ccccc3)N2C1=O
Marked response: > 100 nM

Exam item: One more compound: O=C(c1ccc(F)c(F)c1Nc1ccc(I)cc1F)N1CC(O)([C@@H]2CCCCN2)C1 + CNC(C)C(=O)NC1CN(S(=O)(=O)c2cccc(S(=O)(=O)N3CCC4CCC(C(=O)NC(c5ccccc5)c5ccccc5)N4C(=O)C(NC(=O)C(C)NC)C3)c2)CCC2CCC(C(=O)NC(c3ccccc3)c3ccccc3)N2C1=O
Marked response: > 1000 nM

Exam item: One more compound: C=CC(=O)N1CCN(c2nc(=O)n(-c3c(C)ccnc3C(C)C)c3nc(-c4c(O)cccc4F)c(F)cc23)C(C)C1 (configuration not stated) + CNC(C)C(=O)NC1CN(S(=O)(=O)c2cccc(S(=O)(=O)N3CCC4CCC(C(=O)NC(c5ccccc5)c5ccccc5)N4C(=O)C(NC(=O)C(C)NC)C3)c2)CCC2CCC(C(=O)NC(c3ccccc3)c3ccccc3)N2C1=O
Marked response: > 10000 nM

Exam item: One more compound: NC(=O)C(=Cn1cnc(-c2cc(C(F)(F)F)cc(C(F)(F)F)c2)n1)c1cncnc1 + CNC(C)C(=O)NC1CN(S(=O)(=O)c2cccc(S(=O)(=O)N3CCC4CCC(C(=O)NC(c5ccccc5)c5ccccc5)N4C(=O)C(NC(=O)C(C)NC)C3)c2)CCC2CCC(C(=O)NC(c3ccccc3)c3ccccc3)N2C1=O
Marked response: > 300 nM

Exam item: One more compound: O=C(c1cc(Cc2n[nH]c(=O)c3ccccc23)ccc1F)N1CCN(C(=O)C2CC2)CC1 + CNC(C)C(=O)NC1CN(S(=O)(=O)c2cccc(S(=O)(=O)N3CCC4CCC(C(=O)NC(c5ccccc5)c5ccccc5)N4C(=O)C(NC(=O)C(C)NC)C3)c2)CCC2CCC(C(=O)NC(c3ccccc3)c3ccccc3)N2C1=O
Marked response: > 10000 nM

Exam item: One more compound: C=C(F)C(=O)N1CCN(c2nc(OCC3CCCN3C)nc3c2CCN(c2cccc4cccc(Cl)c24)C3)CC1CC#N (configuration not stated) + CNC(C)C(=O)NC1CN(S(=O)(=O)c2cccc(S(=O)(=O)N3CCC4CCC(C(=O)NC(c5ccccc5)c5ccccc5)N4C(=O)C(NC(=O)C(C)NC)C3)c2)CCC2CCC(C(=O)NC(c3ccccc3)c3ccccc3)N2C1=O
Marked response: 5510 nM

Exam item: One more compound: Cc1nc(N2CCC3(CC2)COC(C)C3N)c(CO)nc1Sc1ccnc(N)c1Cl (configuration not stated) + CNC(C)C(=O)NC1CN(S(=O)(=O)c2cccc(S(=O)(=O)N3CCC4CCC(C(=O)NC(c5ccccc5)c5ccccc5)N4C(=O)C(NC(=O)C(C)NC)C3)c2)CCC2CCC(C(=O)NC(c3ccccc3)c3ccccc3)N2C1=O
Marked response: > 3000 nM

Exam item: One more compound: C#Cc1c(F)ccc2cc(O)cc(-c3ncc4c(N5CC6CCC(C5)N6)nc(OCC56CCCN5CC(F)C6)nc4c3F)c12 (configuration not stated) + CNC(C)C(=O)NC1CN(S(=O)(=O)c2cccc(S(=O)(=O)N3CCC4CCC(C(=O)NC(c5ccccc5)c5ccccc5)N4C(=O)C(NC(=O)C(C)NC)C3)c2)CCC2CCC(C(=O)NC(c3ccccc3)c3ccccc3)N2C1=O
Marked response: > 10000 nM

Exam item: One more compound: CCN1C(C(=O)NC23CCC(C(=O)O)(CC2)CC3)C(c2cccc(Cl)c2F)C2(C(=O)Nc3cc(Cl)ccc32)C12CCCCC2 (configuration not stated) + CNC(C)C(=O)NC1CN(S(=O)(=O)c2cccc(S(=O)(=O)N3CCC4CCC(C(=O)NC(c5ccccc5)c5ccccc5)N4C(=O)C(NC(=O)C(C)NC)C3)c2)CCC2CCC(C(=O)NC(c3ccccc3)c3ccccc3)N2C1=O
Marked response: > 3000 nM

Exam item: One more compound: CCN1CCN(Cc2ccc(Nc3ncc(F)c(-c4cc(F)c5nc(C)n(C(C)C)c5c4)n3)nc2)CC1 + CNC(C)C(=O)NC1CN(S(=O)(=O)c2cccc(S(=O)(=O)N3CCC4CCC(C(=O)NC(c5ccccc5)c5ccccc5)N4C(=O)C(NC(=O)C(C)NC)C3)c2)CCC2CCC(C(=O)NC(c3ccccc3)c3ccccc3)N2C1=O
Marked response: > 1000 nM

Exam item: One more compound: Cn1ncnc1[C@H]1c2n[nH]c(=O)c3cc(F)cc(c23)N[C@@H]1c1ccc(F)cc1 + CNC(C)C(=O)NC1CN(S(=O)(=O)c2cccc(S(=O)(=O)N3CCC4CCC(C(=O)NC(c5ccccc5)c5ccccc5)N4C(=O)C(NC(=O)C(C)NC)C3)c2)CCC2CCC(C(=O)NC(c3ccccc3)c3ccccc3)N2C1=O
Marked response: > 100 nM
